Recorded values, source ChEMBL document CHEMBL3745711.

Assign microsomal CLint to each entry below.
Assay: Intrinsic clearance in human liver microsomes
Assay type: ADME
Conditions: read-out: CLH
Numbers only, in µL/min/mg.

O=C(O)C1(Sc2ccnc3ccc(C(F)(F)F)cc23)CCC1 ... 3.3

Need microsomal CLint for each of these compounds.
1. O=C(O)C1(Sc2ccnc3ccc(Br)cc23)CCC1
2. O=C(O)C1(Sc2ccnc3ccccc23)CCC1

[1.1, 7.2]

###

Experiment: Cmax in beagle dog at 1 mg/kg, iv by LC-MS/MS analysis
Assay type: ADME, organism-based, Canis lupus familiaris
Set-up: dose 1 mg/kg, route intravenous
Conditions: in vivo
MEASURED_METRIC: Cmax (ng/mL)
One number for each entry, in ng/mL.

Field request: Cmax | item: O=C(O)C1(Sc2ccnc3ccc(Br)cc23)CCC1
4700

###

Assay: Apparent volume of distribution in Sprague-Dawley rat at 3 mg/kg, po by LC-MS/MS analysis
Assay type: ADME, organism-based
Details: in vivo, read-out: Vz/F
Assign Vd/F to each entry below.
Numbers only, in L/kg.

Please review the entries below; each comes with its answer.
O=C(O)C1(Sc2ccnc3ccc(C(F)(F)F)cc23)CCC1 ... 1.2
O=C(O)C1(Sc2ccnc3ccccc23)CCC1 ... 0.69

Value lookup for Vd/F; key = O=C(O)C1(Sc2ccnc3ccc(Br)cc23)CCC1
0.14

###

Assay: Half life in Sprague-Dawley rat at 3 mg/kg, po by LC-MS/MS analysis
Assay type: ADME, organism-based
Details: in vivo
Would you mind telling me the reported half-life of each entry?
One number for each entry, in h.

Consider the following illustrative entries.
O=C(O)C1(Sc2ccnc3ccc(C(F)(F)F)cc23)CCC1 ... 8.8
O=C(O)C1(Sc2ccnc3ccc(Br)cc23)CCC1 ... 4.4

Read the next record carefully.
Find the recorded half-life belonging to O=C(O)C1(Sc2ccnc3ccccc23)CCC1 and report it.
2.8

###

Biological target: UniProt:Q96S37
Sequence (Q96S37 whole entry): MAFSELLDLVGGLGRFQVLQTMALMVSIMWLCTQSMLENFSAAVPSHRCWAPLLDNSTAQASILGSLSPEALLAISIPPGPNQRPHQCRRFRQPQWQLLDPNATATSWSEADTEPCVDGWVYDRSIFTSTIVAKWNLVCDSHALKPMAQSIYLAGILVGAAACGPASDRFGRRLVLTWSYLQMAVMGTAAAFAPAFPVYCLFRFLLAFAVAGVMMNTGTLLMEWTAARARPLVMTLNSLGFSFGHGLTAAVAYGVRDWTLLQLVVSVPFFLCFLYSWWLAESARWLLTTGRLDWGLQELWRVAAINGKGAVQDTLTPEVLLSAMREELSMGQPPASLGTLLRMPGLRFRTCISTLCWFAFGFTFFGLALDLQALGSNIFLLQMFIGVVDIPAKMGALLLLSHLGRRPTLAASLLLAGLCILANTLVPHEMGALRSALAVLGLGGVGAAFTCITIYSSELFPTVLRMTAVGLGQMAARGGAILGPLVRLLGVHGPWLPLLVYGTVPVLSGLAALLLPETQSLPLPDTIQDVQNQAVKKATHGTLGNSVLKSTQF
Assay: Inhibition of human URAT1 expressed in HEK293 cells assessed as [14C]uric acid uptake after 12 mins by scintillation counter
MEASURED_METRIC: IC50

Hello, I would appreciate it if you could give IC50 for each entry below.
1. O=C(O)C1(Sc2ccnc3ccc(-c4ccc(C(F)(F)F)cc4)cc23)CCC1
2. O=C(O)C1(Sc2ccnc3ccc(-c4ccccc4F)cc23)CCC1
3. N#CCCc1ccc2nccc(SC3(C(=O)O)CCC3)c2c1
4. O=C(Nc1ccc2nccc(SC3(C(=O)O)CCC3)c2c1)C1CC1
5. O=C(O)C1(Sc2ncnc3ccccc23)CCC1
6. O=C(O)C1(Sc2ccnc3ccc(O)cc23)CCC1

1. 1750 nM
2. 333 nM
3. 2760 nM
4. > 10000 nM
5. > 10000 nM
6. > 10000 nM

###

Assay: Clearance in Sprague-Dawley rat at 3 mg/kg, iv by LC-MS/MS analysis
Type: ADME, organism-based
Details: in vivo
MEASURED_METRIC: clearance (mL/min/kg)
Numbers only, in mL/min/kg.

Return reported clearance; argument: O=C(O)C1(Sc2ccnc3ccc(Br)cc23)CCC1
0.29

###

Experiment: Clearance in Sprague-Dawley rat at 3 mg/kg, po by LC-MS/MS analysis
Format: ADME, organism-based
Conditions: in vivo
Give measured CL/F for each item. Keep answers brief.
One number for each entry, in mL/min/kg.

O=C(O)C1(Sc2ccnc3ccc(Br)cc23)CCC1 [SHR-4640] ... 0.39
O=C(O)C1(Sc2ccnc3ccc(C(F)(F)F)cc23)CCC1 ... 2

The record that follows has no CL/F shown yet.
I would be grateful if you could share the reported CL/F for O=C(O)C1(Sc2ccnc3ccccc23)CCC1 .
2.5
